All figures here come from ChEMBL document CHEMBL1150507.

System: HeLa
assayMethodText: Compound was tested for tumor cell growth inhibition against HeLa cell line
Format: functional
conditions: Homo sapiens, read-out: ID50 (the source's name)
measuredQuantity: IC50 (µM)

Example entries begin here.
>>> measvalue("CCN(CC)CCC(=O)Nc1ccc(O)c2c1C(=O)c1c(O)ccc(O)c1C2=O")
8.05
>>> measvalue("O=C1c2c(O)ccc(O)c2C(=O)c2c(NCCNCCO)ccc(NCCNCCO)c21")
2.77

[1] CCN(CC)CC(=O)Nc1ccc(O)c2c1C(=O)c1c(O)ccc(O)c1C2=O
[2] CCN(CC)CCC(=O)Nc1ccc(NC(=O)CCN(CC)CC)c2c1C(=O)c1c(O)ccc(O)c1C2=O
Prompt line: # returns the entry with the larger IC50; inputs 1 and 2 Reply briefly: the label of your chosen item.
Response line: 1
